system: ryegrass, Italian (Italian ryegrass, Lolium multiflorum); assay: Test A preemergence, Italian ryegrass; assay type: in vivo; conditions: 500 g ai/ha, visual rating after approx. 10 d, 0 to 100 scale, 0 no effect, 100 complete control
Text: […]
ENDPOINT_NAME: Plant response rating, Ryegrass, Italian

Worked cases, answers included:
> print(dat)
                                   compound                             target.system                             endpoint.name  data.value
1  O=C(Nc1cccc(F)c1F)C1C(=O)OCC1c1cccc(C(F)(F)F)c1 (racemic)  ryegrass, Italian (Italian ryegrass, Lolium multiflorum)  Plant response rating, Ryegrass, Italian          20
2  O=C(Nc1cccc(F)c1C(F)(F)F)C1C(=O)OCC1c1ccc(F)c(C(F)(F)F)c1 (racemic)  ryegrass, Italian (Italian ryegrass, Lolium multiflorum)  Plant response rating, Ryegrass, Italian           0
3  O=C(Nc1ccccc1C(F)(F)F)C1C(=O)OCC1c1ccc(C(F)(F)F)cc1 (racemic)  ryegrass, Italian (Italian ryegrass, Lolium multiflorum)  Plant response rating, Ryegrass, Italian          20

Now consider a different compound.
In plain terms, O=C(Nc1cccc(F)c1C(F)(F)F)C1C(=O)OCC1c1ccc(C(F)(F)F)cc1 (racemic) has a documented Plant response rating, Ryegrass, Italian of 0

###

tested on: barnyardgrass (Echinochloa crus-galli); assay: Test A postemergence, barnyardgrass; type: in vivo; conditions: 125 g ai/ha, visual rating after approx. 10 d, 0 to 100 scale, 0 no effect, 100 complete control
ENDPOINT_NAME: Plant response rating, Barnyardgrass
Quick one: just the number, no unit, thanks!

For orientation, consider the following solved cases.
> print(dat)
                                   compound                         endpoint.name  data.value
1  O=C(Nc1cccc(F)c1F)C1C(=O)OCC1c1ccc(F)c(C(F)(F)F)c1 (racemic)  Plant response rating, Barnyardgrass          30
2  O=C(Nc1ccccc1C(F)(F)F)C1C(=O)OCC1c1cccc(C(F)(F)F)c1 (racemic)  Plant response rating, Barnyardgrass           0
3  O=C(Nc1cccc(F)c1F)C1C(=O)OCC1c1cccc(C(F)(F)F)c1 (racemic)  Plant response rating, Barnyardgrass          40
4  O=C(Nc1ccccc1F)C1C(=O)OCC1c1ccc(C(F)(F)F)cc1 (racemic)  Plant response rating, Barnyardgrass           0
5  O=C(Nc1cccc(F)c1C(F)(F)F)C1C(=O)OCC1c1cccc(C(F)(F)F)c1 (racemic)  Plant response rating, Barnyardgrass           0
6  CC1(C(=O)Nc2cccc(F)c2F)C(=O)OCC1c1ccc(F)cc1 (racemic)  Plant response rating, Barnyardgrass          90
7  O=C(Nc1cccc(F)c1C(F)(F)F)C1C(=O)OCC1c1ccc(F)c(C(F)(F)F)c1 (racemic)  Plant response rating, Barnyardgrass           0

Continue with the next compound.
Given item O=C(Nc1ccccc1C(F)(F)F)C1C(=O)OCC1c1ccc(F)c(C(F)(F)F)c1 (racemic) , the value recorded as its Plant response rating, Barnyardgrass is 0

###

# Plant response rating, Ragweed values compiled below
system: ragweed (common ragweed, Ambrosia elatior); assay: Test A postemergence, ragweed; type: in vivo; settings: 500 g ai/ha, visual rating after approx. 10 d, 0 to 100 scale, 0 no effect, 100 complete control
Please respond with just the number, no unit label.

> print(dat)
                                   compound                   endpoint.name  data.value
1  O=C(Nc1ccccc1F)C1C(=O)OCC1c1cccc(C(F)(F)F)c1 (racemic)  Plant response rating, Ragweed           0
2  O=C(Nc1cccc(F)c1C(F)(F)F)C1C(=O)OCC1c1ccc(F)c(C(F)(F)F)c1 (racemic)  Plant response rating, Ragweed           0
3  CC1(C(=O)Nc2ccccc2C(F)(F)F)C(=O)OCC1c1ccc(F)cc1 (racemic)  Plant response rating, Ragweed          40

API: the following record is the query input.
Plant response rating, Ragweed measured on O=C(Nc1cccc(F)c1F)C1C(=O)OCC1c1cccc(C(F)(F)F)c1 (racemic) = 0

###

tested on: ryegrass, Italian (Italian ryegrass, Lolium multiflorum); test: Test A postemergence, Italian ryegrass; format: in vivo; settings: 125 g ai/ha, visual rating after approx. 10 d, 0 to 100 scale, 0 no effect, 100 complete control
Source text: […]
ENDPOINT_NAME: Plant response rating, Ryegrass, Italian
Lab note: jot the number down without any unit.

Some entries whose results are on file:
> print(dat)
                                   molecule  data.value
1  O=C(Nc1ccccc1F)C1C(=O)OCC1c1ccc(F)c(C(F)(F)F)c1 (racemic) [Compound 16]           0
2  O=C(Nc1cccc(F)c1C(F)(F)F)C1C(=O)OCC1c1ccc(F)c(C(F)(F)F)c1 (racemic) [Compound 18]           0
3  O=C(Nc1ccccc1F)C1C(=O)OCC1c1ccc(C(F)(F)F)cc1 (racemic) [Compound 8]           0

Consider now this further molecule.
Per the records, this molecule ( O=C(Nc1ccccc1C(F)(F)F)C1C(=O)OCC1c1ccc(F)c(C(F)(F)F)c1 (racemic) [Compound 17] ) has Plant response rating, Ryegrass, Italian equal to 0

###

The following compounds are shown together with reported Plant response rating, Ryegrass, Italian values.
tested on: ryegrass, Italian (Italian ryegrass, Lolium multiflorum); experiment: Test A preemergence, Italian ryegrass; format: in vivo; conditions: 500 g ai/ha, visual rating after approx. 10 d, 0 to 100 scale, 0 no effect, 100 complete control
Quick one: just the number, no unit, thanks!

> print(dat)
                                   compound  data.value
1  O=C(Nc1ccccc1F)C1C(=O)OCC1c1ccc(C(F)(F)F)cc1 (racemic)           0
2  O=C(Nc1cccc(F)c1F)C1C(=O)OCC1c1ccc(F)c(C(F)(F)F)c1 (racemic)          40
3  O=C(Nc1ccccc1F)C1C(=O)OCC1c1cccc(C(F)(F)F)c1 (racemic)           0
4  O=C(Nc1ccccc1C(F)(F)F)C1C(=O)OCC1c1ccc(F)c(C(F)(F)F)c1 (racemic)           0
5  O=C(Nc1ccccc1F)C1C(=O)OCC1c1ccc(F)c(C(F)(F)F)c1 (racemic)           0

Given item O=C(Nc1ccccc1C(F)(F)F)C1C(=O)OCC1c1cccc(C(F)(F)F)c1 (racemic) , the value recorded as its Plant response rating, Ryegrass, Italian is 20

compound O=C(Nc1cccc(F)c1C(F)(F)F)C1C(=O)OCC1c1cccc(C(F)(F)F)c1 (racemic) , Plant response rating, Ryegrass, Italian observed: 0

// field: Plant response rating, Ryegrass, Italian; key: O=C(Nc1cccc(F)c1F)C1C(=O)OCC1c1ccc(C(F)(F)F)cc1 (racemic) ; value = 0

###

system: foxtail, giant (giant foxtail, Setaria faberii); assay: Test A preemergence, giant foxtail; assay type: in vivo; details: 125 g ai/ha, visual rating after approx. 10 d, 0 to 100 scale, 0 no effect, 100 complete control
ENDPOINT_NAME: Plant response rating, Foxtail, Giant
Enter a number only.

# annotated cases, reported Plant response rating, Foxtail, Giant shown
> print(dat)
                                   compound  data.value
1  O=C(Nc1ccccc1F)C1C(=O)OCC1c1ccc(C(F)(F)F)cc1 (racemic)          20
2  O=C(Nc1cccc(F)c1C(F)(F)F)C1C(=O)OCC1c1ccc(C(F)(F)F)cc1 (racemic)          40
3  O=C(Nc1ccccc1Cl)C1C(=O)OCC1c1ccc(F)c(F)c1 (racemic)          70
4  O=C(Nc1cccc(F)c1C(F)(F)F)C1C(=O)OCC1c1cccc(C(F)(F)F)c1 (racemic)          40

Let's switch to this compound now.
Entry O=C(Nc1ccccc1C(F)(F)F)C1C(=O)OCC1c1cccc(C(F)(F)F)c1 (racemic) — recorded Plant response rating, Foxtail, Giant = 70

###

Plant response rating, Galium: recorded values
tested on: galium (catchweed bedstraw, Galium aparine); assay: Test A postemergence, galium; type: in vivo; conditions: 500 g ai/ha, visual rating after approx. 10 d, 0 to 100 scale, 0 no effect, 100 complete control
In your answer, state the number alone without any accompanying words.

galium (catchweed bedstraw, Galium aparine) data for O=C(Nc1cccc(F)c1C(F)(F)F)C1C(=O)OCC1c1ccc(C(F)(F)F)cc1 (racemic) [Compound 10] ; its Plant response rating, Galium: 0

# value of Plant response rating, Galium, galium (catchweed bedstraw, Galium aparine), item O=C(Nc1ccccc1F)C1C(=O)OCC1c1ccc(C(F)(F)F)cc1 (racemic) [Compound 8] = 0

Measured on galium (catchweed bedstraw, Galium aparine), O=C(Nc1cccc(F)c1C(F)(F)F)C1C(=O)OCC1c1ccc(F)c(C(F)(F)F)c1 (racemic) [Compound 18] has a documented Plant response rating, Galium of 0

Response field Plant response rating, Galium (galium (catchweed bedstraw, Galium aparine)) for item O=C(Nc1ccccc1C(F)(F)F)C1C(=O)OCC1c1ccc(F)c(C(F)(F)F)c1 (racemic) [Compound 17] : 0

Value sought: Plant response rating, Galium, system galium (catchweed bedstraw, Galium aparine), item O=C(Nc1cccc(F)c1F)C1C(=O)OCC1c1ccc(F)c(C(F)(F)F)c1 (racemic) [Compound 15] . Result: 20

Plant response rating, Galium value, target or system galium (catchweed bedstraw, Galium aparine), for CC1(C(=O)Nc2ccccc2C(F)(F)F)C(=O)OCC1c1ccc(F)cc1 (racemic) [Compound 21] : 30

O=C(Nc1ccccc1F)C1C(=O)OCC1c1cccc(C(F)(F)F)c1 (racemic) [Compound 11] on galium (catchweed bedstraw, Galium aparine) gives Plant response rating, Galium = 0
